Data provenance is PubChem BioAssay (Tox21).

# Test Description: qHTS assay to identify small molecule agonists of H2AX (AID 1224845); note: % is set by controls: 0 for no effect and ±100 for the full control effect
# Condition Context: CHO-K1 phospho-H2AX Ser139 HTRF, 3 h; series mostly up to 70.9 µM
Results filed as inconclusive are left out. Calls of active or inactive are those of the source. Calls come from the whole dose curve; as a rule, active = well fitted activation curve with a large enough effect in the signal ratio in the repeat runs (not every such curve was filed as active); inconclusive = weak or mixed curves; inactive = flat fitted curve, though single readings scatter; the % refers to the signal ratio.
Reported Property: activation (H2AX phosphorylation)

compound=CC(C)NC(=O)NC(C)C recorded_measurement=inactive
compound=OCCCC1CCCCC1 recorded_measurement=inactive
compound=CCCCCCCCCCCCCCCCC recorded_measurement=inactive
compound=CCCCCCOC(=O)CCCCC(=O)OCCCCCC recorded_measurement=inactive
compound=COC(=O)CCSCCC(=O)OC recorded_measurement=inactive
compound=Nc1cc(=O)[nH]c(N)n1 recorded_measurement=inactive
compound=CC[N+](C)(C)c1cccc(O)c1 recorded_measurement=inactive
compound=CCS(=O)(=O)c1ccc(OC)c(C(=O)OC)c1 recorded_measurement=inactive
compound=Cc1nc2c([nH]1)c(=O)n(C)c(=O)n2Cc1ccco1 recorded_measurement=inactive
compound=CCOC(=O)CC(C)=O recorded_measurement=inactive
compound=CCCCCSCCCCC recorded_measurement=inactive
compound=O=C(O)Cc1ccc(CCNS(=O)(=O)c2ccc(Cl)cc2)cc1 recorded_measurement=inactive
compound=COC(=O)c1cc(C(=O)OC)cc(S(=O)(=O)O)c1 recorded_measurement=inactive
compound="CC1(C)C(O)C(C)(C)C1O (stereo not given)" recorded_measurement=inactive
compound="CCO[Si](CCC1CCC2OC2C1)(OCC)OCC (stereo not given)" recorded_measurement=inactive

====

# activity change, positive = activation per entry
# Test Description: qHTS assay to identify small molecule agonists of the estrogen related receptor (ERR) signaling pathway from Tox21 library (AID 1224849); note: % is set by controls: 0 for no effect and ±100 for the full control effect; nearly all actives have a fitted effect of over 15% in size
# Condition Context: ERR reporter cell line, ONE-Glo luciferase, 18 h; at 92.4 µM (top of the series) unless noted
Active and inactive are the calls of the source. Calls come from the whole dose curve.
Reported Property: activity change, positive = activation

molecule=CC(C)NC(=O)NC(C)C reported_property="activity change, positive = activation" recorded_measurement="-2.14% (inactive)"
molecule="Cc1cccc(C)c1NC(=O)C(C)N (stereo not drawn)" reported_property="activity change, positive = activation" recorded_measurement="3.88% [at 42.5 µM] (inactive)"
molecule=CN1N=C(C(N)=O)CCC1=O reported_property="activity change, positive = activation" recorded_measurement="0.737% [at 42.5 µM] (inactive)"
molecule=CCOC(=O)[C@H](CCc1ccccc1)N[C@@H](C)C(=O)N1[C@H](C(=O)O)C[C@@H]2CCC[C@@H]21 reported_property="activity change, positive = activation" recorded_measurement="3.92% [at 42.5 µM] (inactive)"
molecule=COC(=O)NN reported_property="activity change, positive = activation" recorded_measurement="-24.9% (inactive)"
molecule=CCn1nc(C(=O)O)c(=O)c2cc3c(cc21)OCO3 reported_property="activity change, positive = activation" recorded_measurement="7.18% [at 42.5 µM] (inactive)"
molecule=CCCCCCCCCCCC reported_property="activity change, positive = activation" recorded_measurement="11.3% (inactive)"
molecule=O=C(O)CN(CCOCCOCCN(CC(=O)O)CC(=O)O)CC(=O)O reported_property="activity change, positive = activation" recorded_measurement="1.46% [at 0.349 µM] (inactive)"
molecule=CC(=O)Nc1c(I)cc(I)c(C(=O)O)c1I reported_property="activity change, positive = activation" recorded_measurement="7.03% [at 42.5 µM] (inactive)"
molecule=CC(C)OC(=O)c1ccccc1 reported_property="activity change, positive = activation" recorded_measurement="0.248% (inactive)"
molecule="CC(C[N+](C)(C)C)OC(N)=O (stereo not drawn)" reported_property="activity change, positive = activation" recorded_measurement="3.25% [at 42.5 µM] (inactive)"
molecule="COC(=O)c1ccc(C)cc1C1=NC(C)(C(C)C)C(=O)N1 (stereo not drawn)" reported_property="activity change, positive = activation" recorded_measurement="4.81% (inactive)"
molecule=CO[C@]12C[C@@H](COC(=O)c3cncc(Br)c3)CN(C)[C@@H]1Cc1cn(C)c3cccc2c13 reported_property="activity change, positive = activation" recorded_measurement="6.2% [at 42.5 µM] (inactive)"
molecule=O=C1CCCC(=O)C1 reported_property="activity change, positive = activation" recorded_measurement="-12.9% (inactive)"
molecule="CC(=O)N(CC(O)CO)c1c(I)c(C(=O)NCCO)c(I)c(C(=O)NCC(O)CO)c1I (stereo not drawn)" reported_property="activity change, positive = activation" recorded_measurement="5.17% [at 42.5 µM] (inactive)"
molecule="C[C@H](NC(CCc1ccccc1)C(=O)O)C(=O)N1CCC[C@H]1C(=O)O (stereo partly drawn)" reported_property="activity change, positive = activation" recorded_measurement="-0.914% [at 42.5 µM] (inactive)"
molecule=ClC(Cl)(Br)Br reported_property="activity change, positive = activation" recorded_measurement="1.45% (inactive)"
molecule=CN1CCN(c2cc3c(cc2F)c(=O)c(C(=O)O)cn3-c2ccc(F)cc2)CC1 reported_property="activity change, positive = activation" recorded_measurement="-10.8% [at 42.5 µM] (inactive)"
molecule="FC1(F)C(F)(F)C(F)(F)C2(F)C(F)(F)C(F)(F)C(F)(F)C(F)(F)C2(F)C1(F)F (stereo not drawn)" reported_property="activity change, positive = activation" recorded_measurement="2.28% [at 42.5 µM] (inactive)"
molecule=C/C=C(\C)C#N reported_property="activity change, positive = activation" recorded_measurement="0.294% (inactive)"
molecule=C1CN(CCOCCN2CCOCC2)CCO1 reported_property="activity change, positive = activation" recorded_measurement="-7.8% (inactive)"
molecule="CC(C)=CCCC(C)CC(=O)O (stereo not drawn)" reported_property="activity change, positive = activation" recorded_measurement="3.83% (inactive)"
molecule=CC(=O)CC(C)(C)C1CCCCC1 reported_property="activity change, positive = activation" recorded_measurement="0.591% (inactive)"
molecule=O=C1CCCN1C1CCCCC1 reported_property="activity change, positive = activation" recorded_measurement="-1.04% (inactive)"
molecule=NC(=O)c1ccc([N+](=O)[O-])cc1 reported_property="activity change, positive = activation" recorded_measurement="-5.69% (inactive)"
molecule=Cc1cc2c(cc1S(N)(=O)=O)S(=O)(=O)CCC2 reported_property="activity change, positive = activation" recorded_measurement="2.29% [at 42.5 µM] (inactive)"
molecule=NS(=O)(=O)c1cc(C(=O)NN2C[C@H]3[C@H]4CCC(C4)[C@H]3C2)ccc1Cl reported_property="activity change, positive = activation" recorded_measurement="-1.11% [at 42.5 µM] (inactive)"
molecule=CCCCOCCOCCOCCCC reported_property="activity change, positive = activation" recorded_measurement="0.577% (inactive)"
molecule="O=C1CC2CC1C1CCCC21 (stereo not drawn)" reported_property="activity change, positive = activation" recorded_measurement="-0.257% (inactive)"
molecule="FC(F)OC(Cl)C(F)(F)F (stereo not drawn)" reported_property="activity change, positive = activation" recorded_measurement="8.92% (inactive)"
molecule=C=C(C)C(=O)OCCCCCCCC(C)C reported_property="activity change, positive = activation" recorded_measurement="2.01% (inactive)"
molecule=CCCCCSCCCCC reported_property="activity change, positive = activation" recorded_measurement="6.38% (inactive)"
molecule=N[C@H](C(=O)O)c1ccc(O)cc1 reported_property="activity change, positive = activation" recorded_measurement="1.6% [at 19 µM] (inactive)"
molecule=CCOC(C)(C)C reported_property="activity change, positive = activation" recorded_measurement="3.27% (inactive)"
molecule=O=C(CCCN1CCC(O)(c2cccc(C(F)(F)F)c2)CC1)c1ccc(F)cc1 reported_property="activity change, positive = activation" recorded_measurement="-10.2% [at 42.5 µM] (inactive)"
molecule=CCC=O reported_property="activity change, positive = activation" recorded_measurement="0.85% (inactive)"
molecule="CCn1ccnc1CC1COc2ccccc2O1 (stereo not drawn)" reported_property="activity change, positive = activation" recorded_measurement="8.29% [at 42.5 µM] (inactive)"
molecule=CC(C)(C)c1nnc(NS(=O)(=O)c2ccccc2)s1 reported_property="activity change, positive = activation" recorded_measurement="-14.8% [at 42.5 µM] (inactive)"
molecule=COC(=O)CCSCCC(=O)OC reported_property="activity change, positive = activation" recorded_measurement="1.8% (inactive)"
molecule="CCO[Si](CCC1CCC2OC2C1)(OCC)OCC (stereo not drawn)" reported_property="activity change, positive = activation" recorded_measurement="3.88% (inactive)"
molecule=O=c1[nH]c(=O)n([C@H]2C[C@H](O)[C@@H](CO)O2)cc1I reported_property="activity change, positive = activation" recorded_measurement="11% [at 42.5 µM] (inactive)"
molecule=CC1(C)CO[C@@H](CC(=O)O)CN1 reported_property="activity change, positive = activation" recorded_measurement="0.501% [at 42.5 µM] (inactive)"
molecule=CN1CCCC1 reported_property="activity change, positive = activation" recorded_measurement="4.55% (inactive)"
molecule=CCSC(=O)N(CC(C)C)CC(C)C reported_property="activity change, positive = activation" recorded_measurement="3.6% (inactive)"
molecule=CN1CC(=O)NC1=N reported_property="activity change, positive = activation" recorded_measurement="4.02% [at 42.5 µM] (inactive)"
molecule=C1OCOCO1 reported_property="activity change, positive = activation" recorded_measurement="6.76% (inactive)"
molecule="CCC(C)C1CCCCC1=O (stereo not drawn)" reported_property="activity change, positive = activation" recorded_measurement="3.66% (inactive)"
molecule=CC(C)(O)C(=O)c1ccccc1 reported_property="activity change, positive = activation" recorded_measurement="0.982% (inactive)"
molecule="N[C@H]1CN(c2c(F)cc3c(=O)c(C(=O)O)cn(C4C[C@H]4F)c3c2Cl)CC12CC2 (stereo partly drawn)" reported_property="activity change, positive = activation" recorded_measurement="5.03% [at 42.5 µM] (inactive)"
molecule=COc1ccc2c(c1)c(CC(=O)OCC(=O)O)c(C)n2C(=O)c1ccc(Cl)cc1 reported_property="activity change, positive = activation" recorded_measurement="3.06% [at 42.5 µM] (inactive)"
molecule=Cc1c(O)cccc1O reported_property="activity change, positive = activation" recorded_measurement="2.02% (inactive)"
molecule=CCc1cccc2c(CCO)c[nH]c12 reported_property="activity change, positive = activation" recorded_measurement="6.5% [at 42.5 µM] (inactive)"
molecule=Brc1c(NC2=NCCN2)ccc2nccnc12 reported_property="activity change, positive = activation" recorded_measurement="3.51% [at 42.5 µM] (inactive)"
